Test system: T-47D
Assay: cells
Details: Homo sapiens, T47D, 48 h, read-out: LC50
property measured: CC50 (µM)
Answer format: numeric, µM implied, no suffix.

# example entries with known answers
compound	CC50 [µM]
Nc1nc(N)c2c(n1)NC(c1ccc(F)cc1)CC(c1ccc(Nc3nc(NCCO)nc(Nc4ccc(Cl)cc4)n3)cc1)=N2 (centres unmarked) [33f]	8.09
CN(C)c1nc(NCCNS(=O)(=O)c2ccc(C3=Nc4c(N)nc(N)nc4NC(c4ccc(C(F)(F)F)cc4)C3)cc2)nc(Nc2ccc(F)cc2)n1 (centres unmarked) [31g]	86
CN(C)c1nc(NCCNS(=O)(=O)c2ccc(C(=O)/C=C/c3ccccc3)cc2)nc(N2CCOCC2)n1 [23a]	87.4

Hello, please tell me recorded CC50 for this one: Cc1ccc(C2CC(c3ccc(Nc4nc(NCCO)nc(Nc5ccc(Cl)cc5)n4)cc3)=Nc3c(N)nc(N)nc3N2)cc1 (centres unmarked) [33b] 8.01

Using the record for CN(C)c1nc(NCCNS(=O)(=O)c2ccc(C(=O)/C=C/c3ccc(C(F)(F)F)cc3)cc2)nc(Nc2ccc(F)cc2)n1 [24g] , state its measured CC50. 19.6

Fill in CC50 for record CN(C)c1nc(NCCNS(=O)(=O)c2ccc(C(=O)/C=C/c3ccccc3)cc2)nc(Nc2ccc(F)cc2)n1 [24a] 41.7

Supply CC50 value. Item: Nc1nc(N)c2c(n1)NC(c1ccc(Cl)cc1)CC(c1ccc(Nc3nc(NCCO)nc(Nc4ccc(Cl)cc4)n3)cc1)=N2 (centres unmarked) [33e] 54.6

// Input: CN(C)c1nc(NCCNS(=O)(=O)c2ccc(C(=O)/C=C/c3ccc(Cl)cc3)cc2)nc(Nc2ccc(F)cc2)n1 [24e] . Output its CC50 only. 18

Given the compound Nc1nc(N)c2c(n1)NC(c1ccccc1)CC(c1ccc(Nc3nc(NCCO)nc(Nc4ccc(Cl)cc4)n3)cc1)=N2 (centres unmarked) [33a] , write its reported CC50. 7.29

Report CC50, nothing else, for this compound: COc1cc(/C=C/C(=O)c2cc(OC)c(OC)c(OC)c2)ccc1Oc1nc(NCCO)nc(N2CCOCC2)n1 [20d] 39.9

Please look at this compound and report its CC50: COc1cc(/C=C/C(=O)c2ccc(S(=O)(=O)NCCNc3nc(N(C)C)nc(N4CCOCC4)n3)cc2)cc(OC)c1OC [23d] 71.5

Look up and state reported CC50 for Cc1ccc(/C=C/C(=O)c2ccc(S(=O)(=O)NCCNc3nc(Nc4ccc(F)cc4)nc(N(C)C)n3)cc2)cc1 [24b] 52.7

// fetch CC50 given entry Nc1nc(N)c2c(n1)NC(c1ccc(C(F)(F)F)cc1)CC(c1ccc(Nc3nc(NCCO)nc(Nc4ccc(Cl)cc4)n3)cc1)=N2 (centres unmarked) [33g] 8.75

Tell me measured CC50 for CN(C)c1nc(NCCNS(=O)(=O)c2ccc(C(=O)/C=C/c3ccc(F)cc3)cc2)nc(N2CCOCC2)n1 [23f] please. 94.2

Write down CC50 measured for item CN(C)c1nc(NCCNS(=O)(=O)c2ccc(C(=O)/C=C/c3ccc(F)cc3)cc2)nc(Nc2ccc(F)cc2)n1 [24f] 11.7

The origin of these recorded values is paper PMC11012124.
